assay: in vitro; details: monkey, microsomes
property measured: remaining at 1 h, 5 µM

Per the records, this molecule ( C[C@]12CC[C@H]3[C@@H](CCC4=CC(=O)CC[C@@]43C)[C@@H]1CC[C@@H]2O [Testosterone, reference compound] ) has remaining at 1 h, 5 µM equal to 16%

----------
target: CYP2C9 (Homo sapiens)
Sequence (P11712 whole entry): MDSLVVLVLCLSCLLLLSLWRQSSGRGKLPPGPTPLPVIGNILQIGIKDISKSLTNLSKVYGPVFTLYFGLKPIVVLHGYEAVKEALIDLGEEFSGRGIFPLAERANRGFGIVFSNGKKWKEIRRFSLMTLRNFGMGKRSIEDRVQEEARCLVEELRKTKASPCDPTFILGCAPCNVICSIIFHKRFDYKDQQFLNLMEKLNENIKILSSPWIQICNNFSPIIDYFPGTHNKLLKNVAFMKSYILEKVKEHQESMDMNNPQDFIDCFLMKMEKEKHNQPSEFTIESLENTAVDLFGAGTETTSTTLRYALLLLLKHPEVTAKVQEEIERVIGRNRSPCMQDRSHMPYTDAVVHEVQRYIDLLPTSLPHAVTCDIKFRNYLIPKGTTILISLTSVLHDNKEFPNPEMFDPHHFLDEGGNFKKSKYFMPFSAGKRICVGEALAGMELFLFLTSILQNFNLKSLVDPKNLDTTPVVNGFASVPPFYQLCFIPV
property measured: IC50
Just so you know, I need the unit written after the number.

Per the records, this molecule ( COc1ccc2cc(C=Cc3ccc(N(C)C)cc3)oc2c1 [KMS88009] ) has IC50 equal to 22.4 µM

----------
assay: Pharmacokinetics IV/PO in monkeys; format: in vivo, cynomolgus monkeys; conditions: cynomolgus monkey; monkey IV 0.77 mg/kg, plasma
property measured: AUC(0-inf) (ng·h/mL)
Answer with a number only, understood to be in ng·h/mL.

Per the records, this molecule ( COc1ccc2cc(C=Cc3ccc(N(C)C)cc3)oc2c1 [KMS88009] ) has AUC(0-inf) equal to 1590

----------
experiment: Pharmacokinetics IV/PO in mice; type: in vivo, ICR mice; settings: ICR; mouse PO 10 mg/kg, plasma
property measured: AUC(0-inf) (ng·h/mL)
Answer with a number only, understood to be in ng·h/mL.

Per the records, this molecule ( `COc1ccc2cc(C=Cc3ccc(N(C)C)cc3)oc2c1` ) has AUC(0-inf) equal to 6310

----------
experiment: Pharmacokinetics IV/PO in monkeys; format: in vivo, cynomolgus monkeys; settings: cynomolgus monkey, plasma; monkey IV 0.77 mg/kg
property measured: MRT last (h)
Answer with a number only, understood to be in h.

Per the records, this compound ( `COc1ccc2cc(C=Cc3ccc(N(C)C)cc3)oc2c1` ) has MRT last equal to 3.6

----------
experiment: Pharmacokinetics IV/PO in monkeys; format: in vivo, cynomolgus monkeys; conditions: cynomolgus monkey, plasma; monkey IV 0.77 mg/kg
property measured: Vd
Just so you know, I need the unit written after the number.

Per the records, this compound ( COc1ccc2cc(C=Cc3ccc(N(C)C)cc3)oc2c1 [KMS88009] ) has Vd equal to 4.4 L/kg

----------
experiment: Pharmacokinetics IV/PO in dogs; assay type: in vivo, beagle dogs; details: beagle; dog PO 4 mg/kg, plasma; read-out: AUC0–24h
property measured: AUC(0-t)
Just so you know, I need the unit written after the number.

Per the records, this compound ( `COc1ccc2cc(C=Cc3ccc(N(C)C)cc3)oc2c1` ) has AUC(0-t) equal to 97.1 ng·h/mL

----------
assay: Pharmacokinetics IV/PO in rats; assay type: in vivo, SD rats; conditions: SD, plasma; rat PO 2.5 mg/kg
property measured: half-life (h)
Answer with a number only, understood to be in h.

Per the records, this compound ( COc1ccc2cc(C=Cc3ccc(N(C)C)cc3)oc2c1 [KMS88009] ) has half-life equal to 4

----------
test: Pharmacokinetics IV/PO in dogs; type: in vivo, beagle dogs; conditions: beagle; dog PO 4 mg/kg, plasma
property measured: AUC(0-inf) (ng·h/mL)
Answer with a number only, understood to be in ng·h/mL.

Per the records, this compound ( `COc1ccc2cc(C=Cc3ccc(N(C)C)cc3)oc2c1` ) has AUC(0-inf) equal to 103

----------
test: Metabolic stability in liver microsomes; type: in vitro ADME; details: rat liver microsomes; read-out: Remaining % of parent molecule at 60 min.
property measured: remaining at 1 h, 5 µM (%)
Answer with a number only, understood to be in %.

Per the records, this compound ( `COc1ccc2cc(C=Cc3ccc(N(C)C)cc3)oc2c1` ) has remaining at 1 h, 5 µM equal to 61.2
